Just for reference, patent US5464861A is where these values come from.

SYSTEM TESTED: epidermal growth factor receptor tyrosine kinase (Homo sapiens)
Construct: A native 170,000 epidermal growth factor receptor-kinase complex from shed plasma membrane vesicles; endogenous in cells
TEST SUMMARY: EGF receptor tyrosine kinase assay (P^32 incorporation in GAT)
Type: biochemical
EXPERIMENTAL CONDITIONS: Table 2, EGRF-R; IC50 entries; read-out: IC50 (EGFR TK)
EXPERIMENTAL ENDPOINT: log10 IC50 (log10 of the value in µM)
Annotation: log10 of IC50, µM basis.

Identify log10 IC50 associated with the compound Cn1c(SSc2c(C(=O)Nc3ccccc3)c3cc(Br)ccc3n2C)c(C(=O)Nc2ccccc2)c2cc(Br)ccc21 [Compound 89]
1.06

---
Identify log10 IC50 associated with the compound Cn1c(SSc2c(C(=O)NCC(=O)O)c3ccccc3n2C)c(C(=O)NCC(=O)O)c2ccccc21 [Compound 112]
1.00

Identify log10 IC50 associated with the compound CN1C(=S)C(C(=O)Nc2ccccc2)c2cc(Cl)ccc21 (centres unmarked) [Compound 20]
0.95

Identify log10 IC50 associated with the compound COC(=O)c1ccc(CNC(=O)c2c(SSc3c(C(=O)NCc4ccc(C(=O)OC)cc4)c4ccccc4n3C)n(C)c3ccccc23)cc1 [Compound 110]
1.11

Identify log10 IC50 associated with the compound CN1C(=S)C(CCCC(=O)O)c2ccccc21 (centres unmarked) [Compound 16]
1.36

Identify log10 IC50 associated with the compound Cn1c(SSc2c(CC(=O)O)c3ccccc3n2C)c(CC(=O)O)c2ccccc21 [Compound 32]
1.54

###

SYSTEM TESTED: epidermal growth factor receptor tyrosine kinase (Homo sapiens, UniProt P00533)
Construct: A native 170,000 epidermal growth factor receptor-kinase complex from shed plasma membrane vesicles; endogenous in cells
Sequence (P00533 25-1210): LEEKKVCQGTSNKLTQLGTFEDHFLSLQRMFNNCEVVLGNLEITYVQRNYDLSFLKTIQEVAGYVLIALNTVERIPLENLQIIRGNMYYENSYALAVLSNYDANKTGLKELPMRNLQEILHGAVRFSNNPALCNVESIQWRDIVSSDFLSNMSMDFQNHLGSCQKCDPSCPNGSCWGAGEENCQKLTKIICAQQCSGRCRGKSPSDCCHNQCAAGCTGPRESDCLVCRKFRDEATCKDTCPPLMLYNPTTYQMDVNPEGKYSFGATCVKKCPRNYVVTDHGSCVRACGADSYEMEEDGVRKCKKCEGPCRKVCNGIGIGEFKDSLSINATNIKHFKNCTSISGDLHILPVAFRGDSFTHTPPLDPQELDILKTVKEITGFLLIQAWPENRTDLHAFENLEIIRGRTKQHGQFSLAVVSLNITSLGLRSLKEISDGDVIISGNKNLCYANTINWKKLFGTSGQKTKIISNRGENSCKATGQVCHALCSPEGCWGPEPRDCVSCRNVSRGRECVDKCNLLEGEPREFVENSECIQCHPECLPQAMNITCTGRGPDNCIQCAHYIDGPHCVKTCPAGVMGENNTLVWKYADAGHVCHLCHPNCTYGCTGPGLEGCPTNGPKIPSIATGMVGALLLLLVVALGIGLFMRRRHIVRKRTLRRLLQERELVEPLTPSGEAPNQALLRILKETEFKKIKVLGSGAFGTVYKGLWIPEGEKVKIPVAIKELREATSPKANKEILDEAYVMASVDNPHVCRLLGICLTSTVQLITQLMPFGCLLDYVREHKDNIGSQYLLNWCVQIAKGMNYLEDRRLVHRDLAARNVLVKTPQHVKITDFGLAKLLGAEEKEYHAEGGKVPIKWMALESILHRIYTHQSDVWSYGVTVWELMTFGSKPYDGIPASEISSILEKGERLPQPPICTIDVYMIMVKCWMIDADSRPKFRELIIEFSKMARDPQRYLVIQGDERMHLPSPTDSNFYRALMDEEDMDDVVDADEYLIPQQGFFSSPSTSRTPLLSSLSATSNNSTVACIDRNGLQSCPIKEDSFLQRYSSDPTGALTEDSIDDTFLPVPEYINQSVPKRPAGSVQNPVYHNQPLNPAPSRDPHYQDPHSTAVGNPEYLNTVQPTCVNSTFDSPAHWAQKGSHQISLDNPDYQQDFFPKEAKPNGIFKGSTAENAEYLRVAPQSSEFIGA
Sequence (P01133 971-1023 partner limits assumed): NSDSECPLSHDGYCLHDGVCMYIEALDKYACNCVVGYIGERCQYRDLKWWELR
TEST SUMMARY: EGF receptor tyrosine kinase assay (P^32 incorporation in GAT)
Assay type: biochemical
EXPERIMENTAL CONDITIONS: at 100 μM; EGRF-R; read-out: % Inhibition at 100 μM (EGFR TK)
Recorded inhibition at 100 µM for the following compounds
Reply with just the number (in %).

Identify inhibition at 100 µM associated with the compound "Cc1cccc2c(C(=O)Nc3ccccc3)c(SSc3c(C(=O)Nc4ccccc4)c4cccc(C)c4n3C)n(C)c12"
27

Identify inhibition at 100 µM associated with the compound "CCOC(=O)CCc1c(SSc2[nH]c3cc(C)ccc3c2CCC(=O)OCC)[nH]c2cc(C)ccc12"
16.6

Identify inhibition at 100 µM associated with the compound COC(=O)CCC1C(=S)Nc2ccccc21 (centres unmarked)
52

Identify inhibition at 100 µM associated with the compound "O=C(CCCc1c(SSc2[nH]c3ccccc3c2CCCC(=O)NCc2ccccc2)[nH]c2ccccc12)NCc1ccccc1"
55.6

Identify inhibition at 100 µM associated with the compound "O=C(Nc1ccccc1)c1c(SSc2[nH]c3ccccc3c2C(=O)Nc2ccccc2)[nH]c2ccccc12"
60

###

SYSTEM TESTED: epidermal growth factor receptor tyrosine kinase (Homo sapiens)
Construct: A native 170,000 epidermal growth factor receptor-kinase complex from shed plasma membrane vesicles; endogenous in cells
TEST SUMMARY: EGF receptor tyrosine kinase assay (P^32 incorporation in GAT)
Assay type: biochemical
EXPERIMENTAL CONDITIONS: Table 2, EGRF-R; IC50 entries; read-out: IC50 (EGFR TK)
EXPERIMENTAL ENDPOINT: pIC50
FYI, pIC50 means -log10 of a concentration in mol per litre.

The following compounds have reported results that may help.
Identify pIC50 associated with the compound CN1C(=S)C(CCC(=O)O)c2ccccc21 (centres unmarked)
5.07

Identify pIC50 associated with the compound "O=C(CCc1c(SSc2[nH]c3ccccc3c2CCC(=O)NCCc2ccccc2)[nH]c2ccccc12)NCCc1ccccc1"
4.54

Identify pIC50 associated with the compound "Cn1c(SSc2c(C(=O)Nc3ccccc3C(=O)O)c3ccccc3n2C)c(C(=O)Nc2ccccc2C(=O)O)c2ccccc21"
4.33

Identify pIC50 associated with the compound "COC(=O)c1ccc(C(=O)c2c(SSc3c(C(=O)c4ccc(C(=O)OC)cc4)c4ccccc4n3C)n(C)c3ccccc23)cc1"
5.21

Identify pIC50 associated with the compound CN1C(=S)C(C(=O)Nc2ccccc2)c2ccccc21 (centres unmarked)
6.00

---
Identify pIC50 associated with the compound "COC(=O)Cc1c(SSSc2[nH]c3ccccc3c2CC(=O)OC)[nH]c2ccccc12"
4.45

Identify pIC50 associated with the compound "Cn1c(SSc2c(C(=O)NCc3ccccc3)c3ccccc3n2C)c(C(=O)NCc2ccccc2)c2ccccc21"
5.82

Identify pIC50 associated with the compound "Cn1c(SSc2c(C(=O)Nc3ccccc3)c3cc(C#N)ccc3n2C)c(C(=O)Nc2ccccc2)c2cc(C#N)ccc21"
4.27
